EXPERIMENTAL_SYSTEM: HDAC6 (human recombinant) (Homo sapiens, UniProt Q9UBN7)
Sequence (Q9UBN7 whole entry): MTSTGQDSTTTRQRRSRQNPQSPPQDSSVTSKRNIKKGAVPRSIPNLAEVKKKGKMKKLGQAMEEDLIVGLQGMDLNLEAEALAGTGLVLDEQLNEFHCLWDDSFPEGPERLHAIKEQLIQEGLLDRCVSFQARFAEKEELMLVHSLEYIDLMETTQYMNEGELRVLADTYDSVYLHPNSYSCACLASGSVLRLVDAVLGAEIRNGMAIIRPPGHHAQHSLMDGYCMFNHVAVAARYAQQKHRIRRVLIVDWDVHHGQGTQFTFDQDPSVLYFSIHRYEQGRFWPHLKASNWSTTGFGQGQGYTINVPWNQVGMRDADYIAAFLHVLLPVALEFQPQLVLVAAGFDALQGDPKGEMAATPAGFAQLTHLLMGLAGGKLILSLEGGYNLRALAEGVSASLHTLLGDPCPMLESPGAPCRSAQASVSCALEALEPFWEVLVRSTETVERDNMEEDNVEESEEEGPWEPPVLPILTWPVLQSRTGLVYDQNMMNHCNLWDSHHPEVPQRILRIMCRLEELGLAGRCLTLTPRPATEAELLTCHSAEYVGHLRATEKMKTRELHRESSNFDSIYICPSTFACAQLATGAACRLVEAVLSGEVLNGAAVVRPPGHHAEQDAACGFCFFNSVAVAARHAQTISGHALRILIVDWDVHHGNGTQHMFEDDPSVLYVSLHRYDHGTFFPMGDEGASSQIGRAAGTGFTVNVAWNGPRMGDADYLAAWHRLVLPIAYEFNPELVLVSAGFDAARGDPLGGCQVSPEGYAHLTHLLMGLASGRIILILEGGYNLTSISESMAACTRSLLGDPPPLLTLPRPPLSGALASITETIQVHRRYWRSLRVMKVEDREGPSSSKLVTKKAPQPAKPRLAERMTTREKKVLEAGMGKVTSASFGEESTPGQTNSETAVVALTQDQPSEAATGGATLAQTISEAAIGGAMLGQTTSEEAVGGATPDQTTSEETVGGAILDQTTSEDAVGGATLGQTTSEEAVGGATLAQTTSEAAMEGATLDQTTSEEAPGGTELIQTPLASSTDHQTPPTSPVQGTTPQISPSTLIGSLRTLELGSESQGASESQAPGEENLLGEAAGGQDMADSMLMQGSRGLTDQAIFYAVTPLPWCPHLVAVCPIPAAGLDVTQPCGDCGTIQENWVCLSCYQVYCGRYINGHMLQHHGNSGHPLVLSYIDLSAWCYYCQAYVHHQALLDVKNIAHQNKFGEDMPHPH
EXPERIMENT: fluorogenic HDAC assay (ZMAL substrate, trypsin-coupled)
METRIC: pIC50
pIC50 here: minus log base 10 of the concentration, concentration in moles per litre.

| SAMPLE_SMILES | RECORDED_MEASUREMENT |
| --- | --- |
| CN(C)c1ccc2c(-c3ccc(C(=O)NCCCn4cc(COc5ccc(C(=O)NCCCCCCC(=O)NO)cc5)nn4)cc3C(=O)[O-])c3ccc(=[N+](C)C)cc-3oc2c1 | 8.04 |

Next compound, please.
So what does the record say about pIC50 for `CN(C)c1ccc2c(-c3ccc(C(=O)NCCOCCOCCOCCn4cc(COc5ccc(C(=O)NCCCCCCC(=O)NO)cc5)nn4)cc3C(=O)[O-])c3ccc(N(C)C)cc3[o+]c2c1` ? 7.74

====

EXPERIMENTAL_SYSTEM: HDAC2 (human recombinant) (Homo sapiens, UniProt Q92769)
Sequence (Q92769 whole entry): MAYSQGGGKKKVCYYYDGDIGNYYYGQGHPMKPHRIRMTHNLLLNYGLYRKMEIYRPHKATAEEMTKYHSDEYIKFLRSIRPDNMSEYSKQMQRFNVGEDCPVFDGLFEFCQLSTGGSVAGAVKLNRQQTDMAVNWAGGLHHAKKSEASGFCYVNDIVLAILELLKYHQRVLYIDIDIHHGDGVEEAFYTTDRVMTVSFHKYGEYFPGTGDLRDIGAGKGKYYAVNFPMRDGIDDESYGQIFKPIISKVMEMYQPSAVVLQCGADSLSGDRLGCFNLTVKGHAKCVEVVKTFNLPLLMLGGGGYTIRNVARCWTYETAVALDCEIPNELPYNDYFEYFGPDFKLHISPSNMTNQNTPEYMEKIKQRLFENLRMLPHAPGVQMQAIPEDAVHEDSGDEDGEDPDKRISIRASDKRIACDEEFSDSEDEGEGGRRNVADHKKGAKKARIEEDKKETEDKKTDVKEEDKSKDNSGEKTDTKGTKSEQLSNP
EXPERIMENT: fluorogenic HDAC assay (ZMAL substrate, trypsin-coupled)
METRIC: pIC50
Schema: pIC50 number; meaning minus log10 of the concentration expressed in molar units.

| SAMPLE_SMILES | pIC50 |
| --- | --- |
| CN(C)c1ccc2c(-c3ccc(C(=O)NCCCn4cc(COc5ccc(C(=O)NCCCCCCC(=O)NO)cc5)nn4)cc3C(=O)[O-])c3ccc(=[N+](C)C)cc-3oc2c1 | 6.66 |

Let us move to another entry and its pIC50.
Could you tell me which pIC50 is on file for `CN(C)c1ccc2c(-c3ccc(C(=O)NCCOCCOCCOCCn4cc(COc5ccc(C(=O)NCCCCCCC(=O)NO)cc5)nn4)cc3C(=O)[O-])c3ccc(N(C)C)cc3[o+]c2c1` ? 6.47

====

EXPERIMENTAL_SYSTEM: HDAC6-HiBiT (endogenously tagged HDAC6 in HeLa HDAC6-HiBiT LgBiT cells) (Homo sapiens, UniProt Q9UBN7)
Sequence (Q9UBN7 whole entry): as the sequence (Q9UBN7 whole entry) above
EXPERIMENT: NanoBRET saturation binding
METRIC: pKd
Value format note: pKd is -log10 of concentration (mol/L); just state the number.

| SAMPLE_SMILES | pKd |
| --- | --- |
| CN(C)c1ccc2c(-c3ccc(C(=O)NCCCn4cc(COc5ccc(C(=O)NCCCCCCC(=O)NO)cc5)nn4)cc3C(=O)[O-])c3ccc(=[N+](C)C)cc-3oc2c1 | 7.10 |

Report pKd for `CN(C)c1ccc2c(-c3ccc(C(=O)NCCOCCOCCOCCn4cc(COc5ccc(C(=O)NCCCCCCC(=O)NO)cc5)nn4)cc3C(=O)[O-])c3ccc(N(C)C)cc3[o+]c2c1` please. 6.92

The origin of these recorded values is paper doi:10.1101/2025.03.31.646177v2.
